Below: a set of entries, each annotated with reported AC50.
- TARGET_OR_SYSTEM: human PAH with the R408W mutation (Homo sapiens, UniProt P00439, R408W)
- Construct: expressed in transfected cells
- Sequence (P00439 whole entry R408W): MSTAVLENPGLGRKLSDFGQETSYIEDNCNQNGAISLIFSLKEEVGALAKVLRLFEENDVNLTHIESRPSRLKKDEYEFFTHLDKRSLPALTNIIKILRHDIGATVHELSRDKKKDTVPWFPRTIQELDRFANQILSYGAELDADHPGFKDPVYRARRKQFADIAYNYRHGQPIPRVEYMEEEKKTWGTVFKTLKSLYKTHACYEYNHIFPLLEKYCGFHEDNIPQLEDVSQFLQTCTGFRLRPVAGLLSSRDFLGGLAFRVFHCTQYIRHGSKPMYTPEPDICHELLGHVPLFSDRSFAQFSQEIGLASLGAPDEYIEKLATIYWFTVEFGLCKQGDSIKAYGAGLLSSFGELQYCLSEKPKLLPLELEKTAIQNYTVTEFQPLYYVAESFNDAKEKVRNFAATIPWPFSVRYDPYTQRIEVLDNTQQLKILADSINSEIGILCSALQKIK
- TEST_PROTOCOL: Cell Based Phenylalanine Flux Assay
- EXPERIMENTAL_CONDITIONS: A375 cells expressing human R408W PAH; 24 hrs compound incubation; 13C-Tyrosine by LC-MS; average where tested multiple times; read-out: AC50

Past entries and their recorded results:
O=C(CCc1nccs1)N1CCc2[nH]cnc2[C@H]1c1nc2ccc(Br)cc2s1 [Example 1081] ... 500 to 1000 nM
O=C(c1oc(N2CCOCC2)nc1C(F)(F)F)N1CCCc2[nH]cnc2[C@@H]1c1nc2ccccc2s1 [Example 2134] ... 1000 to 5000 nM
COCc1nc(Br)c(C(=O)N2CCc3[nH]cnc3[C@@H]2c2nc3c(F)cccc3s2)o1 [Example 1775] ... 500 to 1000 nM

Then this compound:
-- ask For the compound shown here, N#Cc1ncoc1C(=O)N1CCc2[nH]cnc2[C@@H]1c1nc2c(F)cccc2s1 [Example 1662] , give the reported AC50.
-- reply 1000 to 5000 nM

---

- TARGET_OR_SYSTEM: human PAH with the R408W mutation (Homo sapiens, UniProt P00439, R408W)
- Construct: expressed in transfected cells
- TEST_PROTOCOL: Cell Based Phenylalanine Flux Assay
- EXPERIMENTAL_CONDITIONS: A375 cells expressing human R408W PAH; 24 hrs compound incubation; 13C-Tyrosine by LC-MS; average where tested multiple times; read-out: AC50
METRIC_NAME: AC50

Cc1ccc2c(C(=O)N3CCc4[nH]cnc4[C@@H]3c3nc4ccccc4s3)cnn2c1 [Example 1088] ... > 5000 nM

-- ask For the compound shown here, O=C(CCC1CCCC1)N1CCc2[nH]cnc2[C@@H]1c1nc2ccccc2s1 [Example 1016] , give the reported AC50.
-- reply 1000 to 5000 nM

-- ask For the compound shown here, O=C(c1nc(Cl)cs1)N1CCc2[nH]cnc2[C@H]1c1nc2cccc(F)c2s1 [Example 1263] , give the reported AC50.
-- reply 1000 to 5000 nM

-- ask For the compound shown here, O=C(c1cnn2ccc(Cl)cc12)N1CCc2[nH]cnc2[C@@H]1c1nc2ccccc2s1 [Example 1108] , give the reported AC50.
-- reply 1000 to 5000 nM

-- ask For the compound shown here, O=C(c1nc2ccccc2s1)N1CCc2[nH]cnc2[C@H]1c1nc2ccccc2s1 [Example 1001] , give the reported AC50.
-- reply 500 to 1000 nM

-- ask For the compound shown here, O=C(c1cnn2ccc(F)cc12)N1CCc2[nH]cnc2[C@@H]1c1nc2c(F)cccc2s1 [Example 1169] , give the reported AC50.
-- reply 1000 to 5000 nM

-- ask For the compound shown here, CC(C)(O)c1ncc(C(=O)N2CCc3[nH]cnc3[C@@H]2c2nc3c(F)cccc3s2)o1 [Example 1484] , give the reported AC50.
-- reply 1000 to 5000 nM

-- ask For the compound shown here, Cn1cc(-c2ncc(C(=O)N3CCc4[nH]cnc4[C@@H]3c3nc4c(F)cccc4s3)o2)cn1 [Example 1345] , give the reported AC50.
-- reply 1000 to 5000 nM
